- ASSAY_NOTES: Pharmacokinetic profiles
- Format: in vivo
- CONDITION: SD, rat, serum, po, 10 mg/kg, SD rats, PO 10 mg/kg, 8 h; read-out: Con. Mean
MEASURED_QUANTITY: concentration at 8 h (ng/mL)
Enter your answer as a number in ng/mL; do not include the unit.

Look at this compound and give its reported concentration at 8 h. CCN1CCN(C(=O)c2ccc(Nc3ncc(F)c(-c4ccc5nc(N(C)C)sc5c4)n3)nc2)CC1 [YK-2-69]
483

---

- ASSAY_NOTES: Pharmacokinetic profiles
- Type: in vivo
- CONDITION: rat, serum; SD rats, IV 1 mg/kg
MEASURED_QUANTITY: Tmax (min)
Enter your answer as a number in min; do not include the unit.

Look at this molecule and give its reported Tmax. `CCN1CCN(C(=O)c2ccc(Nc3ncc(F)c(-c4ccc5nc(N(C)C)sc5c4)n3)nc2)CC1`
2

---

- ASSAY_NOTES: Pharmacokinetic profiles
- Format: in vivo
- CONDITION: Sprague-Dawley, rat, serum, iv, 1 mg/kg, SD rats, IV 1 mg/kg, 0.083 h; read-out: Con. (individual rats NO.1-3)
MEASURED_QUANTITY: concentration at 0.083 h (ng/mL)
Enter your answer as a number in ng/mL; do not include the unit.

Look at this molecule and give its reported concentration at 0.083 h. `CCN1CCN(C(=O)c2ccc(Nc3ncc(F)c(-c4ccc5nc(N(C)C)sc5c4)n3)nc2)CC1`
811

---

Measured inhibition at 0.00152416 µM by item
- TARGET_DESC: DYRK2 (Homo sapiens, UniProt Q92630)
- Construct: purchased Reaction Biology Corporation (assay service)
- Sequence (Q92630 1-601): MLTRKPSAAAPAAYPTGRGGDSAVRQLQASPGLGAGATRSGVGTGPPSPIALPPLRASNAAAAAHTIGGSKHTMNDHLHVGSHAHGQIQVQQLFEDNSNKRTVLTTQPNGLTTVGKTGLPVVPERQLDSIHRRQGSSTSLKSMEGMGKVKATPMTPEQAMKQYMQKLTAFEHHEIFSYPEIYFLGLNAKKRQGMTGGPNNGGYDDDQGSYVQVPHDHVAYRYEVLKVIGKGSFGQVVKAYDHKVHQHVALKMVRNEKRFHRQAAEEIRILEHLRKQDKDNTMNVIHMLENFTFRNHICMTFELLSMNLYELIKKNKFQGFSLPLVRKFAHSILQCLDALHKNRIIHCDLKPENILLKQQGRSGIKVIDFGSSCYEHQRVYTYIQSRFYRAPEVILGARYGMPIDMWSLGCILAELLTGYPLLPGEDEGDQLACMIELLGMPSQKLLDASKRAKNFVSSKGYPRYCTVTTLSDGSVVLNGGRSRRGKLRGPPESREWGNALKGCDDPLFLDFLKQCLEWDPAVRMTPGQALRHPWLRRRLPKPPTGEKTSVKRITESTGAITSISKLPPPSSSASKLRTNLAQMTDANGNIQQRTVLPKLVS
- ASSAY_NOTES: DYRKs kinase activity assay (33P-ATP, DYRKtide substrate): DYRK2
- Type: biochemical
- CONDITION: DYRK2 kinase; Conc. 0.00152416 µM; duplicate values; read-out: % Inhibition
Enter your answer as a number in %; do not include the unit.

{"COMPOUND_STRING": "CCN1CCN(C(=O)c2cnc(Nc3ncc(F)c(-c4ccc5ncsc5c4)n3)nc2)CC1", "TARGET_DESC": "DYRK2 (Homo sapiens, UniProt Q92630)", "inhibition at 0.00152416 µM (%)": 0.87}
{"COMPOUND_STRING": "CC(C)N1CCN(Cc2ccc(Nc3ncc(F)c(-c4ccc5ncsc5c4)n3)nc2)CC1", "TARGET_DESC": "DYRK2 (Homo sapiens, UniProt Q92630)", "inhibition at 0.00152416 µM (%)": 3.73}
{"COMPOUND_STRING": "CCN1CCN(C(=O)c2ccc(Nc3ncc(F)c(-c4ccc5nc(C)sc5c4)n3)nc2)CC1", "TARGET_DESC": "DYRK2 (Homo sapiens, UniProt Q92630)", "inhibition at 0.00152416 µM (%)": 20.2}

Look at this molecule and give its reported inhibition at 0.00152416 µM. `Cl.Fc1cnc(Nc2ccc(CN3CCNCC3)cn2)nc1-c1ccc2ncsc2c1`
-1.56

Look at this molecule and give its reported inhibition at 0.00152416 µM. `CCN1CCN(C(=O)c2ccc(Nc3nc(-c4ccc5nc(N(C)C)sc5c4)c4sccc4n3)nc2)CC1`
1.6

Look at this molecule and give its reported inhibition at 0.00152416 µM. `Cl.Fc1cnc(Nc2ccc(N3CCNCC3)cn2)nc1-c1ccc2ncsc2c1`
12.2

---

- ASSAY_NOTES: Pharmacokinetic profiles
- Type: in vivo
- CONDITION: SD, rat, serum, po, 10 mg/kg, SD rats, PO 10 mg/kg, 1 h; read-out: Con. Mean
MEASURED_QUANTITY: concentration at 1 h (ng/mL)
Enter your answer as a number in ng/mL; do not include the unit.

Look at this compound and give its reported concentration at 1 h. CCN1CCN(C(=O)c2ccc(Nc3ncc(F)c(-c4ccc5nc(N(C)C)sc5c4)n3)nc2)CC1 [YK-2-69]
400

---

- ASSAY_NOTES: Pharmacokinetic profiles
- Type: in vivo
- CONDITION: Sprague-Dawley, rat, serum, iv, 1 mg/kg, SD rats, IV 1 mg/kg, 0.5 h; read-out: Con. Mean
MEASURED_QUANTITY: concentration at 0.5 h (µg/mL)
Enter your answer as a number in µg/mL; do not include the unit.

Look at this compound and give its reported concentration at 0.5 h. CCN1CCN(C(=O)c2ccc(Nc3ncc(F)c(-c4ccc5nc(N(C)C)sc5c4)n3)nc2)CC1 [YK-2-69]
0.421

---

- TARGET_DESC: DYRK2 (Homo sapiens)
- Construct: purchased Reaction Biology Corporation (assay service)
- ASSAY_NOTES: DYRKs kinase activity assay (33P-ATP, DYRKtide substrate): DYRK2
- Assay type: biochemical
- CONDITION: DYRK2 kinase; Conc. 0.37037 µM; duplicate values
MEASURED_QUANTITY: % Inhibition (%)
Enter your answer as a number in %; do not include the unit.

These recorded examples may help you get a feel for the data.
{"COMPOUND_STRING": "CC(C)N1CCN(Cc2ccc(Nc3ncc(F)c(-c4ccc5ncsc5c4)n3)nc2)CC1", "% Inhibition, %": 58.41}
{"COMPOUND_STRING": "CC(C)(C)OC(=O)N1CCN(Cc2ccc(Nc3ncc(F)c(-c4ccc5ncsc5c4)n3)nc2)CC1", "% Inhibition, %": 37.11}
{"COMPOUND_STRING": "CCN1CCN(Cc2ccc(Nc3ncc(F)c(-c4ccc5ncsc5c4)n3)nc2)CC1", "% Inhibition, %": 63.31}
{"COMPOUND_STRING": "Cl.Fc1cnc(Nc2ccc(CN3CCNCC3)cn2)nc1-c1ccc2ncsc2c1", "% Inhibition, %": 58.36}
{"COMPOUND_STRING": "Cc1nc2ccc(-c3nc(Nc4ccc(C(=O)N5CCNCC5)cn4)ncc3F)cc2s1.Cl", "% Inhibition, %": 85.34}

Look at this compound and give its reported % Inhibition. `Cl.Fc1cnc(Nc2ccc(N3CCNCC3)cn2)nc1-c1ccc2ncsc2c1`
75.73

---

- TARGET_DESC: DYRK2 (Homo sapiens, UniProt Q92630)
- Construct: purchased Reaction Biology Corporation (assay service)
- ASSAY_NOTES: DYRKs kinase activity assay (33P-ATP, DYRKtide substrate): DYRK2
- Type: biochemical
- CONDITION: DYRK2 kinase; Conc. 0.0137174 µM; duplicate values
MEASURED_QUANTITY: % Inhibition (%)
Enter your answer as a number in %; do not include the unit.

These recorded examples may help you get a feel for the data.
{"COMPOUND": "Cl.Fc1cnc(Nc2ccc(CN3CCNCC3)cn2)nc1-c1ccc2ncsc2c1 [Compound 18]", "TARGET_DESC": "DYRK2 (Homo sapiens, UniProt Q92630)", "% Inhibition (%)": 12.10}
{"COMPOUND": "CC(C)(C)OC(=O)N1CCN(Cc2ccc(Nc3ncc(F)c(-c4ccc5ncsc5c4)n3)nc2)CC1 [Compound 17]", "TARGET_DESC": "DYRK2 (Homo sapiens, UniProt Q92630)", "% Inhibition (%)": 0.54}
{"COMPOUND": "CCN1CCN(Cc2ccc(Nc3ncc(F)c(-c4ccc5ncsc5c4)n3)nc2)CC1 [Compound 16]", "TARGET_DESC": "DYRK2 (Homo sapiens, UniProt Q92630)", "% Inhibition (%)": 8.22}
{"COMPOUND": "Cc1nc2ccc(-c3nc(Nc4ccc(C(=O)N5CCNCC5)cn4)ncc3F)cc2s1.Cl [Compound 24]", "TARGET_DESC": "DYRK2 (Homo sapiens, UniProt Q92630)", "% Inhibition (%)": 39.86}
{"COMPOUND": "Cl.Fc1cnc(Nc2ccc(N3CCNCC3)cn2)nc1-c1ccc2ncsc2c1 [Compound 21]", "TARGET_DESC": "DYRK2 (Homo sapiens, UniProt Q92630)", "% Inhibition (%)": 16.84}
{"COMPOUND": "CC(C)N1CCN(Cc2ccc(Nc3ncc(F)c(-c4ccc5ncsc5c4)n3)nc2)CC1 [Compound 12]", "TARGET_DESC": "DYRK2 (Homo sapiens, UniProt Q92630)", "% Inhibition (%)": 7.85}

Query compound follows.
Look at this compound and give its reported % Inhibition. CCN1CCN(C(=O)c2ccc(Nc3ncc(F)c(-c4ccc5nc(C)sc5c4)n3)nc2)CC1 [Compound 23]
41.99

Cited source: paper PMC9133015
